TARGET_SYSTEM: Amyloid-beta precursor protein (Homo sapiens) (UniProt P05067)
Sequence (P05067 whole entry): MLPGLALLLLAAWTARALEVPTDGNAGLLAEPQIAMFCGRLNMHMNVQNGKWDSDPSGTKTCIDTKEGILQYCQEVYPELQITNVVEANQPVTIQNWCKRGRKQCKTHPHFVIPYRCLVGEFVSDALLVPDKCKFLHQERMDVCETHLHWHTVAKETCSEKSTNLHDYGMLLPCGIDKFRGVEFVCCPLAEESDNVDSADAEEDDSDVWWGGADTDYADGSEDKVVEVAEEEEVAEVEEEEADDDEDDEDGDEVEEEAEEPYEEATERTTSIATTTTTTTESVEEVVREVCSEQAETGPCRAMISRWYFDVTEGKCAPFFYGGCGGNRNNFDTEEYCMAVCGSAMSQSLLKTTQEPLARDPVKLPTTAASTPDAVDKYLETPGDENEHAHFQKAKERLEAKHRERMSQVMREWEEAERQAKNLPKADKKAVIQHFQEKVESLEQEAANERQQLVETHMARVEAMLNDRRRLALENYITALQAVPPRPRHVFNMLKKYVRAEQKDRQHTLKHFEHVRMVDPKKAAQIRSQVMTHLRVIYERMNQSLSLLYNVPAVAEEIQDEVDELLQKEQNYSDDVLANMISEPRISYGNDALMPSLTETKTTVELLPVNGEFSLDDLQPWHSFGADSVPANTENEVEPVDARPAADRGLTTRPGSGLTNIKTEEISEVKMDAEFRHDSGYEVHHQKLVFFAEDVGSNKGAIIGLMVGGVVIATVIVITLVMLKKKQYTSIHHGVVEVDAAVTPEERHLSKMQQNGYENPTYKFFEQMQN
ASSAY_PROCEDURE: Inhibition of amyloid beta (1 to 42) (unknown origin) self-aggregation at 20 uM after 46 to 48 hrs by thioflavin T based fluorometric assay
METRIC: inhibition (%)
Answers are plain numbers, in %.

# count of solved cases: 2
compound="CCN(CC)CCCCCCCCOc1ccc(CC2NCCc3cc(OC)c(OC)cc32)cc1 (stereo not given)" metric=inhibition val=39.6
compound="COc1cc2c(cc1OC)C(Cc1ccc(OCCCCCCN3CCN(c4ccccc4)CC3)cc1)NCC2 (stereo not given)" metric=inhibition val=65.8

Value sought for every listed compound: inhibition.
1. COc1cc2c(cc1OC)C(Cc1ccc(OCCCCCCN(C)C)cc1)NCC2 (stereo not given)
2. CCCCN(CCCC)CCCCCCOc1ccc(CC2NCCc3cc(OC)c(OC)cc32)cc1 (stereo not given)
3. CCN(CC)CCCCCCOc1ccc(CC2NCCc3cc(OC)c(OC)cc32)cc1 (stereo not given)

[55.3, 51.4, 56.4]

Values from ChEMBL document CHEMBL3259766
